Data origin: patent US20220281959A1

target: HIV-1 MN gp41 recombinant protein produced in E. coli (565-771Delta642-725) (HIV-1 MN); assay: ELISA
In this section we review reported EC50 values for a set of binders.
assay_readout: EC50

1. anti-PEP3 gp41 mAb 4G1 (antibody, V domains shown) VL: DVVMTQTPLSLCVSLGDQASISCRTSQSIVHSNRYTYLEWYLQKPGQPLKLLIYGIANRFSGVPDRFSGSGSGTDFTLKISRVEAEDMGVYYCLQGTHVPFTFGSGTKLEIK V domain: QVQLQQPGAELVKPGASVKLSCKASGYIFRNYWMHWVKQRPGQGLEWIGMIHPNSDITHYNEKFKNRATLTVDKSSSTAYMQLNSLTSEDSAVYYCARGGLGVFDYWGQGTALRVSS ... 0.005 µg/mL
2. anti-PEP3 mAb 8D5 (antibody, V domains shown) VH: QVQLQQPGAELIEPGTSVKLSCKASGYTFTTYWMHWVKQRPGQGLEWIGMIHPNSGDTFYNENFKNKATLTVDISSSTVYMELSSLTSEDSAVYSCVKAGTGALDYWGQGTTLTVSS VL: DVVMTQTPLSLPVSLGDQASISCRSSQSIVHSNRYTYLEWYLQRPGQSLKLLIYGVSNRFSGVPDRFSGSGSGTDFILKISRVEAEDMGVYYCFQGTHVPFTFGSGTKLEIK ... 0.02 µg/mL
3. anti-PEP3 mAb 3A2 (antibody, V domains shown) VH: QVQLQQPGAELVKPGASVKLSCKASGYIFTNYWMHWVRQRPGQGPEWIGMIHPNRGDLHYSEKFNNKATLTVDKSSSTAYMQLNSLASEDSAVYFCARAGLGVFDYWGQGSTLTVSS VL: DVVMTQTPLSLPVSLGDQVSMSCRSSQSIEHSNRNTYLEWYLHKPGQAPQLLIYGVSNRFTGVPDRFSGSGSGTDFTLKISRVEAEDMGVYHCLQGTHVPFTFGSGTKLEIK ... 0.02 µg/mL
4. anti-PEP3 mAb 5E12 (antibody, V domains shown) VH: QIQLVQSGPELKKPGETVKISCKASGYTFRTYGMSWVKQAPGKGLKWMGWINTYSGVPRYVDDFKGRFALSLETSASTAYLQINNLKSEDTATYFCVREGYSYYGSSFHTMDYWGQGTSVTVSS VL: DIQMTQTPLTLSVTIGHPASISCKSSQSLLHTNGKIYLNWLLQRPGQSPKRLIYLVSKLDSGVPDRFSGSGSGTDFTLKISRVEAEDLGVYYCLQSTHFPQTFGGGTKLEIK ... > 13 µg/mL
